Values were extracted from patent US10376589B2.

tested on: PA-1 ovarian cancer cells; experiment: MTT cytotoxicity assay, 72 hrs; type: cell-based, human; settings: PA-1, MTT
measure_name: pIC50
Bear in mind: pIC50 is minus log10 of a mol/L concentration; give just that figure.

# lookup: pIC50 of N.N.[Cl][Pt][Cl] [Cisplatin] 6.22
